assay: Tmax in Beagle dog at 10 mg/kg, iv; type: ADME, organism-based, Canis lupus familiaris; set-up: dose 10 mg/kg, route intravenous; conditions: in vivo

compound | uom | Tmax
N#Cc1ccccc1Cn1c(N2CCC[C@@H](N)C2)nc2ccsc2c1=O | min | 6

====

assay: AUC (0 to t) in Sprague-Dawley rat at 10 mg/kg, iv; type: ADME, organism-based; parameters: dose 10 mg/kg, route intravenous; details: plasma
property-label: AUC(0-t) (ng·h/mL)

compound | assay-value
N#Cc1ccccc1Cn1c(N2CCC[C@@H](N)C2)nc2ccsc2c1=O | 1480

====

assay: AUC (0 to t) in Beagle dog at 20 mg/kg, po; assay type: ADME, organism-based, Canis lupus familiaris; set-up: dose 20 mg/kg, route oral; conditions: plasma

compound | AUC(0-t)
N#Cc1ccccc1Cn1c(N2CCC[C@@H](N)C2)nc2ccsc2c1=O | 11200 ng·h/mL

====

assay: Mean residence time in Sprague-Dawley rat at 10 mg/kg, iv; assay type: ADME, organism-based; set-up: dose 10 mg/kg, route intravenous; conditions: in vivo

compound | MRT [h]
N#Cc1ccccc1Cn1c(N2CCC[C@@H](N)C2)nc2ccsc2c1=O | 2.7

====

assay: Half life in Sprague-Dawley rat at 20 mg/kg, po; type: ADME, organism-based; set-up: dose 20 mg/kg, route oral; settings: in vivo

compound | half-life / h
N#Cc1ccccc1Cn1c(N2CCC[C@@H](N)C2)nc2ccsc2c1=O | 7

====

assay: Tmax in Beagle dog at 20 mg/kg, po; type: ADME, organism-based, Canis lupus familiaris; design: dose 20 mg/kg, route oral; details: in vivo

compound | Tmax [min]
N#Cc1ccccc1Cn1c(N2CCC[C@@H](N)C2)nc2ccsc2c1=O | 54.6

====

assay: Cmax in Sprague-Dawley rat at 10 mg/kg, iv; type: ADME, organism-based; design: dose 10 mg/kg, route intravenous; details: in vivo

compound | Cmax [ng/mL]
N#Cc1ccccc1Cn1c(N2CCC[C@@H](N)C2)nc2ccsc2c1=O | 1230

====

target: UniProt Q86TI2
Sequence (Q86TI2 whole entry): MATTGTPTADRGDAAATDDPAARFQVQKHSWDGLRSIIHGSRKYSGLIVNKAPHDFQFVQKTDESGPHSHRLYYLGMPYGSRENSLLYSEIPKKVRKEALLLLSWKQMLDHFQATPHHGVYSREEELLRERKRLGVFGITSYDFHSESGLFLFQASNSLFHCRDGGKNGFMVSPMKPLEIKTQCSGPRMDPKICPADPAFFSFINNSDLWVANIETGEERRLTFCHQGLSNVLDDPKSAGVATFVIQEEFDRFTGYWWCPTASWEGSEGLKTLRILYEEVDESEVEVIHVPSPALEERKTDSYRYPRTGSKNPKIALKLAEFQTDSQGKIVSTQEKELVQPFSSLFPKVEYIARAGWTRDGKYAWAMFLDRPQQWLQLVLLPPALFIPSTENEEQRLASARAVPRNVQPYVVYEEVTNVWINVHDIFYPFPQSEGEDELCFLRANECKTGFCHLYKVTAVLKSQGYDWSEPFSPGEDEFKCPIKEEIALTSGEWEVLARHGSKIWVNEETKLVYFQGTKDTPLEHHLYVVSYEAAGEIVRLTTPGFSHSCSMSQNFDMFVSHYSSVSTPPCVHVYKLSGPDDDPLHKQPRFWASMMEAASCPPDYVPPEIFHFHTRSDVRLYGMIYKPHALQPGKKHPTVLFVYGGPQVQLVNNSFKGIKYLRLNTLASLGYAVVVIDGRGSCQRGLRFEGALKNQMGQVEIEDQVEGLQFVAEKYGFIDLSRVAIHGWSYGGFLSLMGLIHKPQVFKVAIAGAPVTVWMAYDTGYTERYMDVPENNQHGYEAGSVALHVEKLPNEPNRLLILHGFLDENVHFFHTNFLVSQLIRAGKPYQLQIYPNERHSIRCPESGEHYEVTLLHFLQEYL
As shown below, each of these compounds has a reported IC50 value.

compound | system | IC50
Cc1csc2c(=O)n(Cc3ccccc3C#N)c(N3CCC[C@@H](N)C3)nc12 | UniProt Q86TI2 | > 25 µM
Cc1csc2nc(N3CCC[C@@H](N)C3)n(Cc3ccccc3C#N)c(=O)c12 | UniProt Q86TI2 | > 25 µM
N#Cc1ccccc1Cn1c(N2CCC[C@@H](N)C2)nc2ccsc2c1=O | UniProt Q86TI2 | > 25 µM

====

experiment: Half life in Beagle dog at 20 mg/kg, po; assay type: ADME, organism-based, Canis lupus familiaris; parameters: dose 20 mg/kg, route oral; conditions: in vivo
property-label: half-life (h)

compound | property-label | assay-value
N#Cc1ccccc1Cn1c(N2CCC[C@@H](N)C2)nc2ccsc2c1=O | half-life | 11.3

====

assay: Cmax in Beagle dog at 20 mg/kg, po; assay type: ADME, organism-based, Canis lupus familiaris; set-up: dose 20 mg/kg, route oral; conditions: in vivo
property-label: Cmax (ng/mL)

compound | property-label | assay-value
N#Cc1ccccc1Cn1c(N2CCC[C@@H](N)C2)nc2ccsc2c1=O | Cmax | 2070

====

test: Mean residence time in Beagle dog at 10 mg/kg, iv; assay type: ADME, organism-based, Canis lupus familiaris; design: dose 10 mg/kg, route intravenous; settings: in vivo

compound | MRT, h
N#Cc1ccccc1Cn1c(N2CCC[C@@H](N)C2)nc2ccsc2c1=O | 6

The origin of these recorded values is ChEMBL document CHEMBL1649374.
